# Assay Comment: Assay 1: stability (influencing factor tests: high temperature, high humidity, illumination) of amorphous form and crystal forms I, II, VII; content and purity by HPLC
# Assay type: physicochemical
# Particulars: Illumination 45001x ± 5001x, Day 14
Observation Type: Content (%)
Kindly provide the numeric value in % only, without the unit symbol.

Prompt line: I am curious: what Content value has been reported for CN(C)c1cc(CN2CC3CC3C2)c(O)c2c1C[C@H]1C[C@H]3[C@H](N(C)C)C(O)=C(C(N)=O)C(=O)[C@@]3(O)C(O)=C1C2=O (stereo partly shown) [Crystal form VII] ?
Response line: 95.7

Prompt line: Given CN(C)c1cc(CN2CC3CC3C2)c(O)c2c1C[C@H]1C[C@H]3[C@H](N(C)C)C(O)=C(C(N)=O)C(=O)[C@@]3(O)C(O)=C1C2=O (single isomer, unassigned) [Crystal form II] , state its recorded Content.
Response line: 96.1

Prompt line: # query: Content of entry CN(C)c1cc(CN2CC3CC3C2)c(O)c2c1C[C@H]1C[C@H]3[C@H](N(C)C)C(O)=C(C(N)=O)C(=O)[C@@]3(O)C(O)=C1C2=O (stereo partly shown) [Amorphous form]
Response line: 85.0

Prompt line: Look at this compound and give its reported Content. CN(C)c1cc(CN2CC3CC3C2)c(O)c2c1C[C@H]1C[C@H]3[C@H](N(C)C)C(O)=C(C(N)=O)C(=O)[C@@]3(O)C(O)=C1C2=O (stereo partly shown) [Crystal form I]
Response line: 97.8
